We begin with a simple list: items and their reported ヒトPAD4酵素阻害活性 IC50 (BAEE citrullination, colorimetric).
- SUBJECT_OF_TEST: ヒトPAD4 (human, UniProt Q9UM07 1-663, limits assumed)
- Sequence (Q9UM07 whole entry): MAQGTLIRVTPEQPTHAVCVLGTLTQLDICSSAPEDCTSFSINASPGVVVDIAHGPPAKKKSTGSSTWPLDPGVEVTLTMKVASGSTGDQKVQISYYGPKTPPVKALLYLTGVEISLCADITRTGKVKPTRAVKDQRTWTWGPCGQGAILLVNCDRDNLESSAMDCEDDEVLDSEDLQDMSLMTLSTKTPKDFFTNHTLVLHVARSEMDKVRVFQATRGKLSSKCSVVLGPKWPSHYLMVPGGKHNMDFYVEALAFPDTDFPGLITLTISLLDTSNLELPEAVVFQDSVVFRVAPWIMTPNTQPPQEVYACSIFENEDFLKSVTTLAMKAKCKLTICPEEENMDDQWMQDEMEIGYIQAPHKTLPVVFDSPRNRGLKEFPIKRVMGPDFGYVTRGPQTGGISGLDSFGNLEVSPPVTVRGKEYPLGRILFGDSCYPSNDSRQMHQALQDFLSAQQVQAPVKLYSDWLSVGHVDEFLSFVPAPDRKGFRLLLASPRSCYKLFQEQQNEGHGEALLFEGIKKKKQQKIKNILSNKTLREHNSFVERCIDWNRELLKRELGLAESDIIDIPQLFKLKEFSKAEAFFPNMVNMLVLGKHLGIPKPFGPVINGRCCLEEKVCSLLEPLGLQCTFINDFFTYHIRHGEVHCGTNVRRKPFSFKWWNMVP
- ASSAY_METHOD_TEXT: cell-based or functional assay
Report the value in nM with no unit label.

抗PAD4抗体4-2-25 (antibody, human IgG1, lambda, V domains shown) VH: EVQLLESGGGLVQPGGSLRLSCAASGFTFSTYAMGWVRQAPGKGLEFVAAIRNDGSWTGYPPPLKGRFTISRDNSKNTLYLQMSSLRAEDTAVYYCAKYTGSSGGSIGAWGQGTLVTVSS VL: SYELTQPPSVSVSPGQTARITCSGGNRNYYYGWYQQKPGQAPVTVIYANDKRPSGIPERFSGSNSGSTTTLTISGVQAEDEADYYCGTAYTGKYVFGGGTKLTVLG ... 7.6
抗PAD4抗体Lib1(6R)-1-39 (antibody, V domains shown) VH: EVQLLESGGGLVQPGGSLRLSCAASGFTFSTYAMGWVRQAPGKGLEFVAAIRNDGSWTGTSVNAKTRFTISRDNSKNTLYLQMNSLRAEDTAVYYCAKYTGSSGGSIGAWGQGTLVTVSS VL: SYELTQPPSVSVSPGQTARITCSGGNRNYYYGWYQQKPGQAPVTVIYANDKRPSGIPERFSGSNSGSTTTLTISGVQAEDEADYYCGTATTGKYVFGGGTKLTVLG ... 8.7
抗PAD4抗体Lib2(4R)-1-47 (antibody, V domains shown) VH: EVQLLESGGGLVQPGGSLRLSCAASGFTFSTYAMGWVRQAPGKGLEFVAAIRNDGSWTGYGTPYKTRFTISRDNSKNTLYLQMNSLRAEDTAVYYCAKYTGSSGGSIGAWGQGTLVTVSS VL: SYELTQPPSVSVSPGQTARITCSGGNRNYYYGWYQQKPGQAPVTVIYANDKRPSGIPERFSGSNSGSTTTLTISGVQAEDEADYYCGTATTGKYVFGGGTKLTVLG ... 9.6
抗PAD4抗体3-1-39 (antibody, human IgG1, lambda, V domains shown) VH: EVQLLESGGGLVQPGGSLRLSCAASGFTFSTYAMGWVRQAPGKGLEFVAAIRNDGSWTGTSVNAKTRFTISRDNSKNTLYLQMSSLRAEDTAVYYCAKYTGSSGGSIGAWGQGTLVTVSS VL: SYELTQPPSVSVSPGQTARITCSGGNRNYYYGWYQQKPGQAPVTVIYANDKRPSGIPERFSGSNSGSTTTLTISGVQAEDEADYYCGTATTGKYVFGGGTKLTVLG ... 8.8

Now consider a different binder.
Consider 抗PAD4抗体Lib1(6R)-2-37 (antibody, V domains shown) VH: EVQLLESGGGLVQPGGSLRLSCAASGFTFSTYAMGWVRQAPGKGLEFVAAIRNDGSWTGIGYNQKSRFTISRDNSKNTLYLQMNSLRAEDTAVYYCGKYTGSSGGSIGAWGQGTLVTVSS VL: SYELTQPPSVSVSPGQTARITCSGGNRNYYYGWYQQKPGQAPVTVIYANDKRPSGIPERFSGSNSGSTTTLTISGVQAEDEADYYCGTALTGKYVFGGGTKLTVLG . Its measured ヒトPAD4酵素阻害活性 IC50 (BAEE citrullination, colorimetric) is 13.4
